- Assay System: D(2) dopamine receptor (Rattus norvegicus, UniProt P61169)
- Sequence (P61169 whole entry): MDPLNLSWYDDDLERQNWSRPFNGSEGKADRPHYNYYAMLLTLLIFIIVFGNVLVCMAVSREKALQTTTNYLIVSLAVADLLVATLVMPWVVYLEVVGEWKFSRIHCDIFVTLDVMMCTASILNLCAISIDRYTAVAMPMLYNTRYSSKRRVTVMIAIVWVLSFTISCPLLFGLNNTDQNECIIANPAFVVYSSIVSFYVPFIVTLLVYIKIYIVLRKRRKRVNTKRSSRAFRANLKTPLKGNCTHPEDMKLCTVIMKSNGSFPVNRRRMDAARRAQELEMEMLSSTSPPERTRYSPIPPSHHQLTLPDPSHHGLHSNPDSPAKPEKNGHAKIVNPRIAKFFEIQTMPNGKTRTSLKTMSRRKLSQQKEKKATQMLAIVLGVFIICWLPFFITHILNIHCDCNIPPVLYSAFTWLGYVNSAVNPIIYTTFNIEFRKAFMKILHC
- Method Summary: Binding constant against dopamine receptor D2 (in vitro)
Measured Attribute: Ki (µM)
# output: bare number, implied unit µM

The reported value for Cc1nc2sccn2c(=O)c1CCN1CCC(=C(c2ccc(F)cc2)c2ccc(F)cc2)CC1 [RITANSERIN] in terms of Ki is 0.022

----------
- Assay System: Adrenergic receptor alpha-1 (Rattus norvegicus, UniProt P15823+P23944+P43140)
- Method Summary: The concentration required to inhibit [3H]prazosin binding to Alpha-1 adrenergic receptor in rat brain membranes was measured (in vitro)
- Assay type: cell membranes
Please assign not fulfilled whenever IC50 is at or above 80 nM, and fulfilled whenever it is below.

IC50 strictly < 80 nM for this compound? `O=S1(=O)c2cccc3cccc(c23)N1CCCN1CCN(c2ccc(Cl)cc2)CC1`
not fulfilled

I'd appreciate it if you could check whether `O=S1(=O)c2cccc3cccc(c23)N1CCCN1CCN(c2cccc(F)c2)CC1` has IC50 smaller than 80 nM.
not fulfilled

Is IC50 of `O=S1(=O)N=C(N2CCN(CCCN3c4cccc5cccc(c45)S3(=O)=O)CC2)c2ccccc21` strictly below 80 nM?
not fulfilled

Is IC50 strictly under 80 nM for the entry `O=S1(=O)c2cccc3cccc(c23)N1CCCN1CCN(c2ccccc2F)CC1` ?
fulfilled

Lab log: compare recorded IC50 with 80 nM; is it strictly lower for `O=S1(=O)c2cccc3cccc(c23)N1CCCN1CCN(c2ccccc2)CC1` ?
not fulfilled

Does the reported IC50 of `O=S(=O)(c1ccccc1)N(CCCN1CC=C(c2ccccc2)CC1)c1ccccc1` stay below 80 nM?
fulfilled

Is IC50 strictly under 80 nM for the entry `Cc1nc2sccn2c(=O)c1CCN1CCC(=C(c2ccc(F)cc2)c2ccc(F)cc2)CC1` ?
fulfilled

I wonder whether `O=S1(=O)c2cccc3cccc(c23)N1CCCN1CCN(c2ccc(O)cc2)CC1` has IC50 below 80 nM. Can you tell?
not fulfilled

Consider the compound `O=C(c1ccc(F)cc1)C1CCN(CCCN2c3cccc4cccc(c34)S2(=O)=O)CC1` . Is its IC50 strictly less than 80 nM?
fulfilled

State whether 80 nM exceeds IC50 recorded for `O=S1(=O)c2cccc3cccc(c23)N1CCCN1CCC(n2c(O)nc3ccccc32)CC1` .
fulfilled

Please check: IC50 for `CS(=O)(=O)N(CCCN1CC=C(c2ccccc2)CC1)c1cccc2ccccc12` , strictly under 80 nM or not?
fulfilled

Take the compound `O=S1(=O)c2cccc3cccc(c23)N1CCCN1CCN(c2nsc3ccccc23)CC1` and say whether its IC50 is less than 80 nM.
fulfilled

Is IC50 strictly under 80 nM for the entry `O=C1c2cccc3cccc(c23)N1CCCN1CC=C(c2ccccc2)CC1` ?
not fulfilled

Given the entry `O=S1(=O)c2cccc3cccc(c23)N1CCCCN1CC=C(c2ccccc2)CC1` , would its reported IC50 be below 80 nM?
fulfilled

Lab note: confirm whether the reported IC50 for this compound is below 80 nM, equality not counting. compound: `O=S1(=O)c2cccc3cccc(c23)N1CCCN1CC=C(c2ccccc2)CC1`
not fulfilled

Regarding `O=S1(=O)c2cccc3cccc(c23)N1CCCN1CCN(c2ccc(Br)cc2)CC1` , kindly confirm whether its IC50 is beneath 80 nM.
not fulfilled

Problem: For the compound `O=[N+]([O-])c1ccc(N2CCN(CCCN3c4cccc5cccc(c45)S3(=O)=O)CC2)cc1` , is IC50 under 80 nM?
not fulfilled

Just wondering, is IC50 of `Cc1ccc(N2CCN(CCCN3c4cccc5cccc(c45)S3(=O)=O)CC2)cc1` below 80 nM?
not fulfilled

State whether 80 nM exceeds IC50 recorded for `O=S1(=O)c2cccc3cccc(c23)N1CCCN1CCC(c2ccccc2)CC1` .
fulfilled

Does the reported IC50 of the following compound sit strictly below 80 nM? `O=S1(=O)c2cccc3cccc(c23)N1CCCN1CCN(c2ncccn2)CC1`
not fulfilled

Identify whether the compound `CCOC(=O)c1ccc(N2CCN(CCCN3c4cccc5cccc(c45)S3(=O)=O)CC2)cc1` records IC50 below 80 nM.
not fulfilled

Take the compound `O=S1(=O)c2cccc3cccc(c23)N1CCN1CC=C(c2ccccc2)CC1` and say whether its IC50 is less than 80 nM.
not fulfilled

Below 80 nM on IC50? Entry `O=S1(=O)c2ccccc2-c2ccccc2N1CCCN1CC=C(c2ccccc2)CC1`
fulfilled

hey, is IC50 for `COc1ccc(N2CCN(CCCN3c4cccc5cccc(c45)S3(=O)=O)CC2)cc1` lower than 80 nM or not?
not fulfilled

# strict comparison: is reported IC50 < 80 nM? input = `O=S1(=O)c2cccc3cccc(c23)N1CCCN1CCN(c2nc3ccccc3s2)CC1`
not fulfilled

IC50 strictly < 80 nM for this compound? `O=S1(=O)c2cccc3cccc(c23)N1CCN1CCN(c2ccc(F)cc2)CC1`
fulfilled

Is IC50 of `O=S1(=O)c2cccc3cccc(c23)N1CCCN1CCN(c2ccc(C(F)(F)F)cc2)CC1` strictly below 80 nM?
not fulfilled

Quick check: IC50 of `O=S1(=O)c2cccc3cccc(c23)N1CCCN1CCC(=C(c2ccc(F)cc2)c2ccc(F)cc2)CC1` under 80 nM?
fulfilled

# check: IC50 < 80 nM for `O=S1(=O)c2cccc3cccc(c23)N1CCCN1CCN(c2noc3ccccc23)CC1`
not fulfilled

Given the entry `O=S1(=O)c2cccc3cccc(c23)N1CCCN1CCN(c2ccccn2)CC1` , would its reported IC50 be below 80 nM?
not fulfilled

----------
- Assay System: D(2) dopamine receptor (Rattus norvegicus, UniProt P61169)
- Method Summary: The concentration required to inhibit [3H]spiperone binding to dopamine receptor D2 in rat brain membranes (in vitro)
Please go through the items and note down their pIC50.
Bear in mind: pIC50 is minus log10 of a mol/L concentration; give just that figure.

Measured pIC50 of `O=S1(=O)c2cccc3cccc(c23)N1CCCCN1CCN(c2ccc(F)cc2)CC1` : 6.52

Lookup result for `O=S1(=O)c2cccc3cccc(c23)N1CCCN1CCC(n2c(O)nc3ccccc32)CC1` ; measured pIC50: 7.34

Value of pIC50 reported for the compound `O=S1(=O)c2cccc3cccc(c23)N1CCCN1CCC(=C(c2ccc(F)cc2)c2ccc(F)cc2)CC1` is 6.22

// sample `O=S1(=O)c2cccc3cccc(c23)N1CCCN1CC=C(c2ccccc2)CC1` , its pIC50 was 6.00

Lab note: measured pIC50 of Cc1nc2sccn2c(=O)c1CCN1CCC(=C(c2ccc(F)cc2)c2ccc(F)cc2)CC1 [RITANSERIN] was 7.64

Field pIC50 (entry `O=S1(=O)c2cccc3cccc(c23)N1CCCN1CCN(c2ccc(O)cc2)CC1` ) reads 6.29

The compound listed as `O=S1(=O)c2cccc3cccc(c23)N1CCCCN1CC=C(c2ccccc2)CC1` shows pIC50 equal to 7.26

For record `O=S1(=O)c2ccccc2-c2ccccc2N1CCCN1CC=C(c2ccccc2)CC1` the listed pIC50 is 6.96

Please fill in: pIC50 reported for `CS(=O)(=O)N(CCCN1CC=C(c2ccccc2)CC1)c1cccc2ccccc12` = 6.56

According to the records, this compound `O=C(c1ccc(F)cc1)C1CCN(CCCN2c3cccc4cccc(c34)S2(=O)=O)CC1` displays pIC50 of 7.39

Data point: `O=S1(=O)c2cccc3cccc(c23)N1CCCN1CCC(c2ccccc2)CC1` ; pIC50 = 6.41

The reported pIC50 of the compound `O=S(=O)(c1ccccc1)N(CCCN1CC=C(c2ccccc2)CC1)c1ccccc1` was 7.10

Measured pIC50 of `O=S1(=O)c2cccc3cccc(c23)N1CCCN1CCN(c2nsc3ccccc23)CC1` : 6.33

Consider `O=S1(=O)c2cccc3cccc(c23)N1CCCN1CCN(c2noc3ccccc23)CC1` . Its measured pIC50 is 6.00

----------
- Assay System: Histamine H1 receptor (Cavia porcellus, UniProt P31389)
- Sequence (P31389 whole entry): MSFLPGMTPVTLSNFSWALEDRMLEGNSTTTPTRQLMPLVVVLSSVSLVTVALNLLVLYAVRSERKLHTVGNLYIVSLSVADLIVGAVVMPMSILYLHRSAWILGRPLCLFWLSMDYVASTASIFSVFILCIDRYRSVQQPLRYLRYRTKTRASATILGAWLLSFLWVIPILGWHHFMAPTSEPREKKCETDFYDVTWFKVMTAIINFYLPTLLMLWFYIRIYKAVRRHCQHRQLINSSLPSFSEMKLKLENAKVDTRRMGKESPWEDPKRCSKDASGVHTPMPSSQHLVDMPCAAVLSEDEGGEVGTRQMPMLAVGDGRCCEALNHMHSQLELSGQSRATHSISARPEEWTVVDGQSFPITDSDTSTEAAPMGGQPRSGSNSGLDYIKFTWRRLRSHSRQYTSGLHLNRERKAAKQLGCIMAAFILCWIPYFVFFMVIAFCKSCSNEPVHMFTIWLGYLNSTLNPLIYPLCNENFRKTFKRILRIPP
- Method Summary: Binding constant against histamine H1 receptor […]
Measured Attribute: pKi
Formally, pKi is defined as -log10 of the concentration c, with c in mol/L.

The compound identified as `O=S1(=O)c2cccc3cccc(c23)N1CCCN1CCN(c2ccc(F)cc2)CC1` registered its pKi at 7.60

----------
I'd be grateful if you could share measured IC50 for these entries.
- Assay System: Serotonin 2 (5-HT2) receptor (Rattus norvegicus, UniProt P30994+P08909+P14842)
- Method Summary: The concentration required to inhibit [3H]ketanserin binding to 5-hydroxytryptamine 2 receptor in rat brain membranes (in vitro)
- Format: cell membranes
Number in nM, nothing else.

The reported IC50 of the compound `O=S1(=O)c2cccc3cccc(c23)N1CCCN1CCN(c2ccccc2F)CC1` was 3

For record `CCOC(=O)c1ccc(N2CCN(CCCN3c4cccc5cccc(c45)S3(=O)=O)CC2)cc1` the listed IC50 is 200

Short answer for `O=S1(=O)c2cccc3cccc(c23)N1CCCN1CCN(c2nc3ccccc3s2)CC1` : IC50 was 540

Per the records, this compound ( `O=S1(=O)c2cccc3cccc(c23)N1CCCN1CCN(c2ccccc2)CC1` ) has IC50 equal to 2.6

Record `O=S1(=O)c2ccccc2-c2ccccc2N1CCCN1CC=C(c2ccccc2)CC1` . Reported IC50: 10

The value of IC50 measured for the compound `O=S1(=O)c2cccc3cccc(c23)N1CCCN1CCN(c2ccc(O)cc2)CC1` turned out to be 0.3

Entry under test: `O=S(=O)(c1ccccc1)N(CCCN1CC=C(c2ccccc2)CC1)c1ccccc1` . Its IC50 was 10

For `CS(=O)(=O)N(CCCN1CC=C(c2ccccc2)CC1)c1cccc2ccccc12` the compound record lists IC50 as 5.1

Entry `O=S1(=O)c2cccc3cccc(c23)N1CCCN1CCC(=C(c2ccc(F)cc2)c2ccc(F)cc2)CC1` — recorded IC50 = 11

Sample `O=C(c1ccc(F)cc1)C1CCN(CCCN2c3cccc4cccc(c34)S2(=O)=O)CC1` ; IC50 observed: 0.1

Field IC50 (entry `O=S1(=O)c2cccc3cccc(c23)N1CCCN1CCN(c2ccc(Br)cc2)CC1` ) reads 7

The measured IC50 associated with `O=S1(=O)c2cccc3cccc(c23)N1CCN1CC=C(c2ccccc2)CC1` reads 6.3

`O=S1(=O)c2cccc3cccc(c23)N1CCCN1CCN(c2nsc3ccccc23)CC1` has a reported IC50 of 0.4

Lab note: `O=S1(=O)c2cccc3cccc(c23)N1CCCCN1CC=C(c2ccccc2)CC1` gave IC50 of 2.1

Measured IC50 of `O=C1c2cccc3cccc(c23)N1CCCN1CC=C(c2ccccc2)CC1` : 9.8

Entry `COc1ccc(N2CCN(CCCN3c4cccc5cccc(c45)S3(=O)=O)CC2)cc1` — recorded IC50 = 25

Entry `O=S1(=O)N=C(N2CCN(CCCN3c4cccc5cccc(c45)S3(=O)=O)CC2)c2ccccc21` — recorded IC50 = 240

response.value for `Cc1ccc(N2CCN(CCCN3c4cccc5cccc(c45)S3(=O)=O)CC2)cc1` (field: IC50) = 4

For reference, reported IC50 for `O=S1(=O)c2cccc3cccc(c23)N1CCCN1CCN(c2ccc(C(F)(F)F)cc2)CC1` stands at 275

Entry under test: `O=S1(=O)c2cccc3cccc(c23)N1CCCN1CCC(n2c(O)nc3ccccc32)CC1` . Its IC50 was 7

Form: compound = `O=S1(=O)c2cccc3cccc(c23)N1CCCN1CC=C(c2ccccc2)CC1` ; IC50 = 1

Just so you know, measured IC50 for `O=S1(=O)c2cccc3cccc(c23)N1CCCN1CCN(c2noc3ccccc23)CC1` came out at 2.3

Just so you know, measured IC50 for `O=S1(=O)c2cccc3cccc(c23)N1CCCN1CCC(c2ccccc2)CC1` came out at 0.2

So for `O=[N+]([O-])c1ccc(N2CCN(CCCN3c4cccc5cccc(c45)S3(=O)=O)CC2)cc1` , the logged IC50 turned out to be 25

The reported value for `O=S1(=O)c2cccc3cccc(c23)N1CCCCN1CCN(c2ccc(F)cc2)CC1` in terms of IC50 is 3.7

Query `O=S1(=O)c2cccc3cccc(c23)N1CCCN1CCN(c2ccc(Cl)cc2)CC1` yields IC50 of 5

Form: compound = `O=S1(=O)c2cccc3cccc(c23)N1CCCN1CCN(c2ccccn2)CC1` ; IC50 = 6.3

Lab note: `O=S1(=O)c2cccc3cccc(c23)N1CCCN1CCN(c2cccc(F)c2)CC1` gave IC50 of 18

GET /value?item= `O=S1(=O)c2cccc3cccc(c23)N1CCN1CCN(c2ccc(F)cc2)CC1` &field=IC50 returns 1

Quick note, IC50 for `O=S1(=O)c2cccc3cccc(c23)N1CCCN1CCN(c2ncccn2)CC1` landed at 32
